system: Pseudomonas aeruginosa; test: Antimicrobial activity against Pseudomonas aeruginosa H1001 expressing luciferase gene assessed as ratio antimicrobial IC50 for drug to Bac2A peptide by luminescence assay; format: functional
Recorded Ratio IC50 determines the label; the label ranges are low = under 0.3, moderate = from 0.3 up to 3, high = 3 and over

Class label required: H-GKFYKVWVR-OH
moderate

Class label required: H-KRRRIWWWK-OH
moderate

Class label required: H-AIRRWRIRK-OH
high

Class label required: H-SKNVRTWRQ-OH
high

Class label required: H-NQKWSGRRR-OH
high

Class label required: H-FVWQKGTNR-OH
high

Class label required: H-IRRRWWWIV-OH
low

Class label required: H-RIWYWYKRW-OH
moderate

Class label required: H-RWWRWRKWW-OH
low

Class label required: H-RKWRWRWLK-OH
moderate

Class label required: H-GRRWGMGVR-OH
high

Class label required: H-LVFRKYWKR-OH
moderate

Class label required: H-IWKRWRKRL-OH
moderate

Class label required: H-IKRWWRWWR-OH
low

Class label required: H-WGRTRWSSR-OH
high

Class label required: H-KWWRWWRKW-OH
low

Class label required: H-KWWKIWWKR-OH
low

Class label required: H-RKIWWWRIR-OH
moderate

Class label required: H-RWWRKWWIR-OH
low

Class label required: H-KRKIWWWIR-OH
low

Class label required: H-NKTGYRWRN-OH
high

Class label required: H-RWILWWWRI-OH
high

Class label required: H-RWRWWIKII-OH
moderate

Class label required: H-WRWWKIWKR-OH
low

Class label required: H-WRRWWKWWR-OH
low

Class label required: H-IRWWKRWWR-OH
low

Class label required: H-KRWWWWRFR-OH
low

Class label required: H-RIKVIWWWR-OH
moderate

Class label required: H-YQRLFVRIR-OH
high

Class label required: H-LRFILWWKR-OH
moderate

Class label required: H-RLVHWIRRV-OH
moderate

Class label required: H-RLKKVRWWW-OH
moderate

Class label required: H-KRWVWYRYW-OH
moderate

Class label required: H-MINRVRLRW-OH
moderate

Class label required: H-AGGMRKRTR-OH
high

Class label required: H-KRKLIRWWW-OH
low

Class label required: H-RKWMGRFLM-OH
high

Class label required: H-RKWIWRWFL-OH
low

Class label required: H-RVWRNGYSR-OH
high

----------
tested on: Pseudomonas aeruginosa; assay: Antimicrobial activity against multidrug-resistant Pseudomonas aeruginosa Brazil 213 isolate after overnight incubation by broth microdilution method; type: functional
Metric: MIC (µM)
Numbers only here, please. The scale is µM.

Give the reported MIC for H-RKRLKWWIY-OH (system: Pseudomonas aeruginosa).
50

Give the reported MIC for H-RLARIVVIRVAR-OH (system: Pseudomonas aeruginosa).
192

Give the reported MIC for H-FRRWWKWFK-OH (system: Pseudomonas aeruginosa).
5.9

Give the reported MIC for H-WKRWWKKWR-OH (system: Pseudomonas aeruginosa).
93

Give the reported MIC for H-RRFKFIRWW-OH (system: Pseudomonas aeruginosa).
49

Give the reported MIC for H-KWKIFRRWW-OH (system: Pseudomonas aeruginosa).
48

----------
tested on: Escherichia coli; assay: Antimicrobial activity against extended-spectrum beta-lactamase producing Escherichia coli 64771 after overnight incubation by broth microdilution method; type: functional
Give measured MIC for each item. Keep answers brief.
Numbers only here, please. The scale is µM.

Give the reported MIC for H-AIRRWRIRK-OH (system: Escherichia coli).
108

Give the reported MIC for H-RLARIVVIRVAR-OH (system: Escherichia coli).
24

Give the reported MIC for H-RRFKFIRWW-OH (system: Escherichia coli).
12

Give the reported MIC for H-IWWKWRRWV-OH (system: Escherichia coli).
6

Give the reported MIC for H-AVWKFVKRV-OH (system: Escherichia coli).
120

Give the reported MIC for H-RKWIWRWFL-OH (system: Escherichia coli).
1.5

Give the reported MIC for H-WKKWWKRRW-OH (system: Escherichia coli).
2.9

Give the reported MIC for H-RWRRWKWWL-OH (system: Escherichia coli).
2.9

Give the reported MIC for H-WRWWKIWKR-OH (system: Escherichia coli).
5.9

Give the reported MIC for H-LRWWWIKRI-OH (system: Escherichia coli).
13
